Origin of the recorded values: PubChem BioAssay

- experimental-details: small-molecule binders of probe aNOTCH2, primary screen, biochemical, small-molecule microarray, 635/667 nm fluorescence (AID 1121);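 further: score merges feature fluorescence read at 667 nm with its signal to noise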
- condition-label: higher = more signal
composite z-score values, listed per item
Give your answer as a number; write no unit.

input: Using known records, supply composite z-score for "COC(=O)[C@@]1(Cc2ccccc2)[C@H]2c3cc(C(=O)N4CCCC4)[nH]c3C[C@H]2CN1C(=O)c1ccccc1"
output: 0.111

input: Using known records, supply composite z-score for "CC(C)N1C(=O)[C@@]2(c3ccc([N+](=O)[O-])cc3)CC(=O)N(C3CCCCC3)[C@@H]2c2ccc(CO)cc21"
output: -0.12

---

- Tested on: Plasmodium falciparum Sir2 (PF13_0152, Sir2A)
- experimental-details: pfSir2 binders on small-molecule microarrays, primary screen, biochemical, small-molecule microarray, 635 nm fluorescence (AID 1098);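 further: score merges spot fluorescence intensity with its signal-to-noise ratio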
- condition-label: small-molecule microarray binding, fluorescence 635 nm; higher = more signal
Returns condition met if the recorded composite z-score is greater than or equal to 1, and condition not met otherwise.

input: Tell me whether composite z-score is at least 1 here: CCOc1cc(C(O)C2C=CC3C(=O)N(C)C(=O)C3N2N2CCCCC2)ccc1O (stereo not given)
output: condition met

input: Tell me whether composite z-score is at least 1 here: "C=CCOC(=O)[C@@H]1[C@H]2C(=O)O[C@H](c3ccccc3)[C@H](c3ccccc3)N2[C@H](c2ccc(OCCOC(=O)[C@H]3C[C@H]4C(=O)N[C@@H](CCCCN(C)C)C(=O)N4[C@H]3c3cccc(OCCO)c3)cc2)[C@@]12C(=O)Nc1ccc(I)cc12"
output: condition met

input: Tell me whether composite z-score is at least 1 here: "CC(C)C(=C=CC[C@@H](O)c1ccccc1OCCO)C[C@@H](O)COCc1ccccc1"
output: condition met

input: Tell me whether composite z-score is at least 1 here: "O=C(CCCCCCC(=O)Nc1ccccc1)N/N=C/c1ccccc1"
output: condition not met

---

- target-desc: Torsin-1A (Homo sapiens) (UniProt O14656)
- Sequence (O14656 whole entry, looked up): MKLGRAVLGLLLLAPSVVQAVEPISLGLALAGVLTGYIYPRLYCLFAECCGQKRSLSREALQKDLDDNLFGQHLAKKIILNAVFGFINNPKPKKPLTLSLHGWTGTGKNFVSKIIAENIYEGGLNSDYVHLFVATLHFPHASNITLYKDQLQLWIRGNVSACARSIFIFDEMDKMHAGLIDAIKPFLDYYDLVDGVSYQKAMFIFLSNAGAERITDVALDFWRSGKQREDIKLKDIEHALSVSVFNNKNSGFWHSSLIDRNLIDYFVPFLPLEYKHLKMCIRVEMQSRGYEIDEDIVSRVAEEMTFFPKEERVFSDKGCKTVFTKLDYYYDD
- experimental-details: torsin A binders from cell lysate, primary screen, small-molecule microarray, wild-type, 635/667 nm (AID 1149)
- condition-label: COS7 hTOR1A-WT lysate, 635 nm fluorescence, higher = more signal
Returns YES if the recorded composite z-score is greater than or equal to 0.7, and NO otherwise.

Worked set:
INSERT INTO measurements (compound, class_assignment) VALUES
  ('[N-]=[N+]=Nc1ccccc1[C@@H]1OC(c2ccc(OCCCO)cc2)=N[C@]1(CCS(=O)(=O)c1ccccc1)C(=O)NCCN1CCOCC1', 'YES'),
  ('NC(N)=NCc1cn(CCc2c[nH]c3ccccc23)nn1', 'NO'),
  ('Cc1ccc(F)cc1S(=O)(=O)N[C@@H]1CCN(Cc2ccc(Oc3ccccc3)cc2)C1', 'NO'),
  ('COC(=O)[C@]1(CCS(=O)(=O)c2ccccc2)N=C(c2ccc(OCCCO)cc2)O[C@@H]1c1ccccc1CN=[N+]=[N-]', 'YES');

input: Tell me whether composite z-score is at least 0.7 here: "COCCCNC(=O)[C@]1(Cc2ccccc2CN=[N+]=[N-])N=C(c2ccc(OCCCO)cc2)O[C@@H]1c1ccccc1"
output: NO

input: Tell me whether composite z-score is at least 0.7 here: C[C@H]1C2=C3C(CC[C@H]4C(OCc5ccc(F)cc5C(F)(F)F)OC[C@](C)([C@@H]34)N(C(=O)OC(C)(C)C)C2)C2COC(=O)OCC21 (stereo not given in full)
output: NO

input: Tell me whether composite z-score is at least 0.7 here: "CN(C)C(=O)[C@@]1(Cc2ccccc2N=[N+]=[N-])COC(c2ccc(OCCCO)cc2)=N1"
output: NO

input: Tell me whether composite z-score is at least 0.7 here: "C=C(COC)/C(=C/C[C@@H](OC(=O)c1ccncc1)c1cccc(OCCO)c1)c1cnc2ccccc2c1"
output: YES
